Compiled literature IC50, tested on UniProtKB Q92793.
Sequence (Q92793 whole entry): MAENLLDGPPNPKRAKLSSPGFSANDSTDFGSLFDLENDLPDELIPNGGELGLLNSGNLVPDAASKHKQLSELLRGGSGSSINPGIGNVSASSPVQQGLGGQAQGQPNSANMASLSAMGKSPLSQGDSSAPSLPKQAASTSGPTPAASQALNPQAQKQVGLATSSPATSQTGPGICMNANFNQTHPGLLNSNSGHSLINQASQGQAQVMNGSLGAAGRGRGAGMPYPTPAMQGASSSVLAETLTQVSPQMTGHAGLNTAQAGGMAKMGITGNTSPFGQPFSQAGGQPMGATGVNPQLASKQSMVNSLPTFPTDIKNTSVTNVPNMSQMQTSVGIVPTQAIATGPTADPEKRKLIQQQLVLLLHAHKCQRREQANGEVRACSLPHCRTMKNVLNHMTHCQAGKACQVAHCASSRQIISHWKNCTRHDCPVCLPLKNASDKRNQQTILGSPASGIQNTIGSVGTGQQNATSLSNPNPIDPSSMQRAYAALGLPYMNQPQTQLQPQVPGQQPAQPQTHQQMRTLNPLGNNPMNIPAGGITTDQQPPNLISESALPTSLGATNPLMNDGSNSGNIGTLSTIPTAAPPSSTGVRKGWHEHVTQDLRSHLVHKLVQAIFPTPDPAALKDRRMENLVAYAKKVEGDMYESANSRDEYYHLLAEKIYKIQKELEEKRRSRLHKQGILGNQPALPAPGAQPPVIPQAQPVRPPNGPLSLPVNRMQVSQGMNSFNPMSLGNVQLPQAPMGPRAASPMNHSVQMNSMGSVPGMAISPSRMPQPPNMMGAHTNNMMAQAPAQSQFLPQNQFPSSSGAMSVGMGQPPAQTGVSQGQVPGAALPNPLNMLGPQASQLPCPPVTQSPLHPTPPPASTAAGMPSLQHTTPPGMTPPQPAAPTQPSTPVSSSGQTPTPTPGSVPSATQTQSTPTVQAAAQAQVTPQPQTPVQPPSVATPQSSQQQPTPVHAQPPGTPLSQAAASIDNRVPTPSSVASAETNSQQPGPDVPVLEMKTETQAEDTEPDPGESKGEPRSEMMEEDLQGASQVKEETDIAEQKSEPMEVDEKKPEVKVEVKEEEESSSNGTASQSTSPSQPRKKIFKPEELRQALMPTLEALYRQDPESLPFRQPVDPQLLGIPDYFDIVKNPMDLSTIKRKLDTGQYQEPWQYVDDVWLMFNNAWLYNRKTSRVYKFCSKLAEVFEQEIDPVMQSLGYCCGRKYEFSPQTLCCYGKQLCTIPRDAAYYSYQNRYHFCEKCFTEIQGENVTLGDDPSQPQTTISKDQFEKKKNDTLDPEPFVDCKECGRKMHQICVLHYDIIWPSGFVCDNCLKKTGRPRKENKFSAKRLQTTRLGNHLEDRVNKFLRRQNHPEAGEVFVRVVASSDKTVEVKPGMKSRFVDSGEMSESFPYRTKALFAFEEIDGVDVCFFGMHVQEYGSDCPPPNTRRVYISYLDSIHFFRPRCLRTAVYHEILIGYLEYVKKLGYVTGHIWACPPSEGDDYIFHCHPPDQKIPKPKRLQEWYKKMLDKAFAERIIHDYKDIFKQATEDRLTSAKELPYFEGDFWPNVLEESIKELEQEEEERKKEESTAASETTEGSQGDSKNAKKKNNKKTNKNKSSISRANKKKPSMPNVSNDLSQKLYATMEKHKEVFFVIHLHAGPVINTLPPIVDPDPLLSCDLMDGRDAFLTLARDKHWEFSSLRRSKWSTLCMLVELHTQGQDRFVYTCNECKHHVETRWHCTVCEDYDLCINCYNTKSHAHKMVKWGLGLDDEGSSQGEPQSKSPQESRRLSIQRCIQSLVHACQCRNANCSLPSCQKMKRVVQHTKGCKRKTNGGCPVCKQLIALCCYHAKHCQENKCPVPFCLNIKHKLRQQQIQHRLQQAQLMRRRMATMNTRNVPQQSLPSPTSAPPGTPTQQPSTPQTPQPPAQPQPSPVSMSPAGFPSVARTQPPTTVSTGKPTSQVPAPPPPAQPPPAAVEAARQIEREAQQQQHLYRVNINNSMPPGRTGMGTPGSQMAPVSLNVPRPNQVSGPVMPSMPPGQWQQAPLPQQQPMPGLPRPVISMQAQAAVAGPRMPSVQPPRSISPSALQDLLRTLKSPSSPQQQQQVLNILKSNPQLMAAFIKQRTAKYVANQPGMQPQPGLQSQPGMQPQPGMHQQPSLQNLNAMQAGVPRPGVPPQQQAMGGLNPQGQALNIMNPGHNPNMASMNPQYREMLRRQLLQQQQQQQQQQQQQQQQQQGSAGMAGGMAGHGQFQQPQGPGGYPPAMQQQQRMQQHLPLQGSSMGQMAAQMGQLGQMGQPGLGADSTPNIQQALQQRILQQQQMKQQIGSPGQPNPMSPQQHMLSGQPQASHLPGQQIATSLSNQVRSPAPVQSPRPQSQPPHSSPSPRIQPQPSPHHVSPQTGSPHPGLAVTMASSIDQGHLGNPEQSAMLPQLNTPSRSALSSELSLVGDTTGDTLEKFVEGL

{"columns": ["substanceSmiles", "experimentalSystem", "inequalitySymbol", "IC50 (nM)"],
 "data": [
  ["CC(=O)n1cc(C(=O)Nc2cc(C(=O)O)cc(-c3cncc(C)c3)c2)c2ccccc21", "UniProtKB Q92793", "=", 1690],
  ["CC(=O)n1c(C#N)nc2ccccc21", "UniProtKB Q92793", ">", 50000],
  ["CC(=O)n1cc(C(=O)Nc2cc(C(=O)O)ccc2NCC2CCCCC2)c2ccccc21", "UniProtKB Q92793", "=", 2330],
  ["CCCCCOc1ccc(CCc2nc3cc(-c4c(C)noc4C)ccc3n2CCN2CCOCC2)cc1", "UniProtKB Q92793", "=", 690],
  ["CCc1noc(C)c1-c1ccc2c(c1)nc(CCc1ccccc1)n2CCN1CCOCC1", "UniProtKB Q92793", "=", 310],
  ["COc1ccc2c(c1)c(C(=O)Nc1cc(C(=O)O)cc(-c3ccco3)c1)cn2C(C)=O", "UniProtKB Q92793", "=", 140],
  ["CC1=NN(c2ccc(C(=O)O)cc2)C(=O)/C1=C/c1ccc(-c2cc(C)c(C)cc2[N+](=O)[O-])o1", "UniProtKB Q92793", "=", 2.6],
  ["Cc1noc(C)c1-c1ccc2c(c1)nc(CCc1ccccc1)n2CCN1CCOCC1", "UniProtKB Q92793", "=", 240],
  ["CC(=O)n1cc(C(=O)Nc2cc(C(=O)O)ccc2NCC2CCOCC2)c2ccccc21", "UniProtKB Q92793", "=", 6360],
  ["CCOC(=O)CCn1cc(C(C)=O)c2ccccc21", "UniProtKB Q92793", "=", 39600],
  ["Cc1noc(C)c1-c1ccc2c(c1)nc(CCc1ccccc1)n2CC(=O)N1CCOCC1", "UniProtKB Q92793", "=", 360],
  ["CCN1C(=O)[C@@H](CC2CC2)Oc2cc(-c3c(C)noc3C)ccc21", "UniProtKB Q92793", "=", 2560],
  ["CC(=O)n1cc(C(=O)Nc2cc(C(=O)O)cc(C3CC3)c2)c2ccccc21", "UniProtKB Q92793", "=", 2740],
  ["CNC(=O)Nc1ccc2c(c1)CCC[C@@]21OC(=O)N(CC(=O)N2Cc3ccc(F)cc3CC[C@H]2C2CC2)C1=O", "UniProtKB Q92793", "=", 14],
  ["CCn1cc(-c2ccc3c(c2)nc(CCc2ccccc2)n3CCN2CCOCC2)ccc1=O", "UniProtKB Q92793", "=", 500],
  ["CC(=O)OCc1cn(C(C)=O)c2ccccc12", "UniProtKB Q92793", ">", 50000],
  ["CC(=O)c1nn(-c2ccccc2)cc1C(=O)c1ccccc1", "UniProtKB Q92793", ">", 50000],
  ["Cc1noc(C)c1-c1ccc2c(c1)nc(CCc1ccccn1)n2CCN1CCOCC1", "UniProtKB Q92793", "=", 330],
  ["COc1ccc2c(c1)N(CCCNC(=O)c1cccc3c1N[C@H](C)CC(=O)N3)CCC2", "UniProtKB Q92793", "=", 1260],
  ["Cc1ccc(CN2C(=O)/C(=C3\\SC(=S)N(CCCCCCCC(=O)O)C3=O)c3ccccc32)cc1", "UniProtKB Q92793", "=", 35900]
]}
